Assay: Antimitotic activity against human U373 cells by [3H]thymidine incorporation assay
Type: functional, U-373MG ATCC
Conditions: U373 MG, read-out: ID50 (the source's name)
Task for the reader: assign each of the following compounds its reported IC50.
Numbers only, in µM.

{"input_smiles": "CCCCC(=O)N[C@H]1[C@@H](OCCc2ccccc2)O[C@H](COCC(CO)(CO)COS(=O)(=O)O)[C@@H](O)[C@@H]1O", "IC50, µM": 6.7}
{"input_smiles": "CCCCCCCC/C=C\\CCCCCCCCO[C@H]1O[C@H](CO)[C@@H](O)[C@H](O)[C@H]1NC(C)=O", "IC50, µM": 4.6}

# IC50 (compound: CCCCCCCCCCCCCCCCO[C@H]1O[C@H](COC[C@@H](O)CO)[C@@H](O)[C@H](O)[C@H]1NC(=O)CCCC ) is 5.6

---

Assay: Antimitotic activity against human U373 cells by [3H]thymidine incorporation assay
Type: functional, U-373MG ATCC
Conditions: U373 MG, read-out: ID50 (the source's name)
Task for the reader: assign each of the following compounds its reported pIC50.
Numbers only, as −log10 of the molar value.

Before answering, review these 4 worked examples.
{"compound": "CCCCCCCCCCCCCCCCO[C@H]1O[C@H](COCC(CO)(CO)COS(=O)(=O)O)[C@@H](O)[C@H](O)[C@H]1NC(=O)CCCC", "pIC50": 5.49}
{"compound": "CCCCCCCCCCCCCCCCO[C@H]1O[C@H](COCC(O)CO)[C@@H](O)[C@H](O)[C@H]1NC(=O)CCCCCCCCCCCCCCC (mixture of isomers)", "pIC50": 5.48}
{"compound": "CCCCCCCC/C=C\\CCCCCCCC(=O)N[C@H]1[C@@H](OCCCCCCCC)O[C@H](COS(=O)(=O)O)[C@@H](O)[C@@H]1O", "pIC50": 4.90}
{"compound": "CCCCCCCCCCCCCCCCO[C@H]1O[C@H](COCC(O)CO)[C@@H](O)[C@H](O)[C@H]1NC(=O)CCCC (stereo partly drawn)", "pIC50": 5.34}

Here is another compound to look at.
# pIC50 (compound: C=CCCC(=O)N[C@H]1[C@@H](OCCCCCCCCCCCCCCCC)O[C@H](CO)[C@@H](O)[C@@H]1OS(=O)(=O)O ) is 4.48

---

System: A-375
Experiment: Antimitotic activity against human A375 cells by [3H]thymidine incorporation assay
Format: functional
Settings: A-375, 24 h, read-out: ID50 (the source's name)
measured_property: IC50 (µM)
Numbers only, in µM.

Before answering, review these 4 worked examples.
{"input_smiles": "CCCCCCCC/C=C\\CCCCCCCC(=O)N[C@H]1[C@@H](OCCCCCCCC)O[C@H](COS(=O)(=O)O)[C@@H](O)[C@@H]1O", "test_target": "A-375", "IC50 (µM)": 15.6}
{"input_smiles": "CCCCCCCC/C=C\\CCCCCCCCO[C@H]1O[C@H](CO)[C@@H](O)[C@H](OS(=O)(=O)O)[C@H]1NC(C)=O", "test_target": "A-375", "IC50 (µM)": 2.1}
{"input_smiles": "C=CCCC(=O)N[C@H]1[C@@H](OCCCCCCCCCCCCCCCC)O[C@H](CO)[C@@H](O)[C@@H]1OS(=O)(=O)O", "test_target": "A-375", "IC50 (µM)": 7.2}
{"input_smiles": "CCCCC(=O)N[C@H]1[C@@H](OCCc2ccccc2)O[C@H](COCC(CO)(CO)COS(=O)(=O)O)[C@@H](O)[C@@H]1O", "test_target": "A-375", "IC50 (µM)": 9.3}

Lab note: molecule CCCCCCCC/C=C\CCCCCCCCO[C@H]1O[C@H](CO)[C@@H](O)[C@H](O)[C@H]1NC(C)=O tested on A-375; recorded IC50 was 4.8
